Origin of the recorded values: paper PMC7612733

Target: UniProt Q5U9T2
Sequence (Q5U9T2 1-146): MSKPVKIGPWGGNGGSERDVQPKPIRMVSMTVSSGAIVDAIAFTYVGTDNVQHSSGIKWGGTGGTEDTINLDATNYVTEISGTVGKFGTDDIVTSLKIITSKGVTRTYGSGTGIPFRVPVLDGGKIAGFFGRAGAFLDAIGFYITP
Assay: 1H-15N HSQC-detected NMR titration with TITAN 2D lineshape modeling, wt horcolin
Type: binding, Hordeum vulgare (barley)
Settings: Kd2, CBS2, wt horcolin, two-site sequential binding model, 25 °C, pH 7.4
observable: pKd
One number for each entry, as −log10 of the molar value.

Incoming: Give the measured pKd of CO[C@H]1O[C@H](CO)[C@@H](O)[C@H](O)[C@@H]1O .
Outgoing: 2.33

----------
Molecular target: wt horcolin (Hordeum vulgare, UniProt Q5U9T2)
Test: 1H-15N HSQC-detected NMR titration with TITAN 2D lineshape modeling, wt horcolin
Format: binding, Hordeum vulgare (barley)
Settings: Kd2, CBS2, wt horcolin, two-binding-site non-cooperative (NC) model, cluster of four residues
observable: pKd
Give bare numbers, as −log10 of the molar value.

Incoming: Give wt horcolin (Hordeum vulgare, UniProt Q5U9T2) pKd for CO[C@H]1O[C@H](CO)[C@@H](O)[C@H](O)[C@@H]1O [mannose, methyl-α-D-mannose]
Outgoing: 2.11

----------
Target: D138A horcolin (Hordeum vulgare, UniProt Q5U9T2, D138A)
observable: Kd (mM)
One number for each entry, in mM.

Incoming: Give the measured Kd of CO[C@H]1O[C@H](CO)[C@@H](O)[C@H](O)[C@@H]1O .
Outgoing: 3.2
